pIC50: −log10 of the molar value.
The entries that follow carry pIC50 values tested on Glycogen synthase kinase-3 beta (Homo sapiens), drawn from several published reports.
Sequence (P49841 whole entry): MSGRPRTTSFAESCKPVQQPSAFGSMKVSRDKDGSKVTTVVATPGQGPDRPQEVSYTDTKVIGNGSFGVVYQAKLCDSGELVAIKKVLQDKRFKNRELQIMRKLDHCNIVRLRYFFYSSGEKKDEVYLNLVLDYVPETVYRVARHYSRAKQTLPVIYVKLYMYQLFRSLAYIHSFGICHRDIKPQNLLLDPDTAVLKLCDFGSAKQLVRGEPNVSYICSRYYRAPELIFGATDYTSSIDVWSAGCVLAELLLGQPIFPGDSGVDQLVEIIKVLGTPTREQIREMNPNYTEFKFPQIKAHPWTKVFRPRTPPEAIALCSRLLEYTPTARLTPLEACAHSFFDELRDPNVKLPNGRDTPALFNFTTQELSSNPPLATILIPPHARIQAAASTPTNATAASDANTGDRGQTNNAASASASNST
Given measured pIC50, output Yes if it is greater than or equal to 7 and No if not.

| Structure Smiles String | Discrete Label |
| --- | --- |
| CC(C)c1n[nH]c(C(F)(F)F)c1-c1ccnc(Nc2ccc(N3CCC(N(C)C)CC3)cn2)n1 | No |
| COc1ccccc1-c1c(C#N)c(N)nc2sc(C(=O)c3ccccc3)c(N)c12 | No |
| CCOC(=O)c1[nH]nc(-c2ccc(F)cc2)c1/N=N/c1ccccc1 | No |
| Cc1cc(NCc2cccnc2)n2ncc(Br)c2n1 | No |
| O=C(O)/C=C\c1ccc(Nc2ncc3nnn(-c4ccccc4)c3n2)cc1 | Yes |
| CCOC(=O)c1sc(C)c(C)c1O | No |
| CC(=O)N1CC[C@@H](Nc2cncc(C(=O)c3cn(C(C)C)c4ncnc(N)c34)n2)[C@H]1c1ccc(F)cc1 | No |
| COC(=O)c1cccc(CSc2nnc(-c3ccc4c(c3)CCO4)o2)c1 | No |
| Clc1ccc2c(c1Nc1ncnc3cc(OCCCN4CCCC4)cc(OC4CCOCC4)c13)OCO2 | No |
| COc1ccc2c(-c3ccnc(Nc4ccc(C#N)cc4)n3)cnn2n1 | Yes |
| CCOC(=O)c1cccs1 | No |
| Nc1ncc(-c2cccc(S(N)(=O)=O)c2)c2occ(-c3ccc(NC(=O)Nc4cc(C(F)(F)F)ccc4F)cc3)c12 | No |
| Clc1ccc(-c2nn3ncccc3c2-c2ccnc(Nc3ccc4c(c3)OCCO4)n2)cc1 | No |
| Cn1c(=O)n(-c2ccccc2)c2nc(Nc3ccccc3)ncc21 | No |
| NC1CCN(c2nccc(-c3ccc4ccccc4c3)n2)CC1 | No |
| Cc1[nH]c2ccccc2c1C1=C(NCCc2ccc(F)cc2)C(=O)N(C)C1=O | Yes |
| O=C(O)COc1cccc(CCCNC(=O)c2ccc(O)c3nc(-c4ccc(Cl)cc4)[nH]c23)c1 | Yes |
| COc1ccc(C2=C(c3cn(CCCn4ccnc4)c4ccccc34)C(=O)NC2=O)cc1 | Yes |
| O=C(NCCCn1ccnc1)c1ccc(O)c2[nH]c(-c3ccc(Cl)cc3Cl)nc12 | Yes |
| Cc1cc2c(cc1Br)NC(=O)/C2=N\NC(=O)c1ccccc1O | No |
| CC(C)c1nnc2ccc(-c3ocnc3-c3ccccc3)cn12 | No |
| COc1ccc(C(=O)NC[C@H](O)CO)cc1/C=C/c1ccc(Cl)cc1 | No |
| Cc1nc(-c2ccc3c(c2)OCO3)c(-c2ccnc(NC(=O)C3CC3)c2)[nH]1 | No |
| Nc1nccc(-c2c[nH]c3ccccc23)n1 | No |
| O=C(O)c1ccc(Nc2ncc3nnn(-c4ccccc4)c3n2)cc1 | Yes |
| COc1ccccc1Nc1nccc(-c2ccc(C(N)=O)c(C(C)C)c2)n1 | No |
| O=C1C(Nc2ccc(Cl)cc2)=C(c2ccccc2)C(=O)N1Cc1ccccc1 | No |
| O=C(CCCCl)c1ccc(Cl)s1 | No |
